assay.remarks: Pharmacokinetics of FTD and TPI in plasma of solid cancer patients given FTD/TPI combination drug, by renal function cohort
Assay type: in vivo, human
assay.conditions: human, plasma, po, 35 mg/m2, Day 1; Cohort 1: mild renal impairment (CLcr 60 to 89 mL/min); 35 mg/m^2 per once as FTD, oral, twice a day; plasma; mean
Readings of half-life for the listed compounds
observation.type: half-life (min)

compound	observation.type	scale.unit	assay.value
Cl.N=C1CCCN1Cc1[nH]c(=O)[nH]c(=O)c1Cl [TPI]	half-life	min	140
O=c1[nH]c(=O)n([C@H]2C[C@H](O)[C@@H](CO)O2)cc1C(F)(F)F [FTD, α,α,α-trifluorothymidine]	half-life	min	107

* * *

assay.remarks: Pharmacokinetics of FTD and TPI in plasma of solid cancer patients given FTD/TPI combination drug, by renal function cohort
Format: in vivo, human
assay.conditions: human, plasma, po, 35 mg/m2, Day 12; Cohort 2: moderate renal impairment (CLcr 30 to 59 mL/min); 35 mg/m^2 per once as FTD, oral, twice a day; plasma; mean
Entries annotated with measured half-life

chemical.string	scale.unit	half-life
Cl.N=C1CCCN1Cc1[nH]c(=O)[nH]c(=O)c1Cl	h	2.63
O=c1[nH]c(=O)n([C@H]2C[C@H](O)[C@@H](CO)O2)cc1C(F)(F)F	h	3.22

* * *

assay.remarks: Pharmacokinetics of FTD and TPI in plasma of solid cancer patients given FTD/TPI combination drug, by renal function cohort
Type: in vivo, human
assay.conditions: human, plasma, po, 35 mg/m2, Day 1; Cohort 2: moderate renal impairment (CLcr 30 to 59 mL/min); 35 mg/m^2 per once as FTD, oral, twice a day; plasma; mean
observation.type: Cmax (ng/mL)

compound	observation.type	scale.unit	assay.value
O=c1[nH]c(=O)n([C@H]2C[C@H](O)[C@@H](CO)O2)cc1C(F)(F)F [FTD, α,α,α-trifluorothymidine]	Cmax	ng/mL	2760
Cl.N=C1CCCN1Cc1[nH]c(=O)[nH]c(=O)c1Cl [TPI]	Cmax	ng/mL	100

* * *

assay.remarks: Pharmacokinetics of FTD and TPI in plasma of solid cancer patients given FTD/TPI combination drug, by renal function cohort
Format: in vivo, human
assay.conditions: human, plasma, po, 35 mg/m2, Day 12; Cohort 2: moderate renal impairment (CLcr 30 to 59 mL/min); 35 mg/m^2 per once as FTD, oral, twice a day; plasma; mean
Entries and their measured Cmax follow.

molecule	Cmax, ng/mL
O=c1[nH]c(=O)n([C@H]2C[C@H](O)[C@@H](CO)O2)cc1C(F)(F)F [FTD, α,α,α-trifluorothymidine]	6010
Cl.N=C1CCCN1Cc1[nH]c(=O)[nH]c(=O)c1Cl [TPI]	112

* * *

assay.remarks: Pharmacokinetics of FTD and TPI in plasma of solid cancer patients given FTD/TPI combination drug, by renal function cohort
Type: in vivo, human
assay.conditions: human, plasma, po, 35 mg/m2, Day 12; Cohort 0: normal renal function; 35 mg/m^2 per once as FTD, oral, twice a day; plasma; mean
observation.type: half-life

compound	assay.value
Cl.N=C1CCCN1Cc1[nH]c(=O)[nH]c(=O)c1Cl [TPI]	157 min
O=c1[nH]c(=O)n([C@H]2C[C@H](O)[C@@H](CO)O2)cc1C(F)(F)F [FTD, α,α,α-trifluorothymidine]	125 min
